molecular target: T1, Ebola virus GP with a C-terminal polyhistidine tag (Sino Biologicals, Catalog #40442-V08B1) (Ebola virus, UniProt P87666 33-650); experiment: SPR 25C, mAb captured
T1 construct: also called EbolaGP.his; Ebola virus GP.his
Entries and their kon values follow.
Just the number please, in M⁻¹ s⁻¹, no unit attached.

Examples with answers:
binder	observed
H1H17193P (antibody, V domains shown) VH: QVQLVESGGGVVQPGRSLRLSCAASGFTFSSYGIHWVRQAPGKWLEWVAFIWFDGSNKYYADSVKGRFTISRDDSKNTLYLQMNSLRAEDTAVYYCARDGEIFGVLISSDAFDIWGQGTMVTVSS VL: DIQMTQSPSSLSASVGDRVTITCRASRGIRNDLGWFQQKPGKAPKRLIYVASNLQSGVPSRFSGSGSGTEFTLTISSLQPEDFATYYCLQHNSYPITFGQGTRLEIK	4580
H1M17354N (antibody, V domains shown, also called HCAF05C08-22) VH: QVQLVQSGAEVKKPGASVKVSCKASGYTFTSYYMHWVRQAPGQGLEWLGIINPSGGSTSYAQKFQGRVTMTRDTSTSTVYMELSSLRSEDTAVYYCARETGEAGEVFNYWGQGTQVTVSS VL: DIQMTQSPSSLSASVGDRVTITCRASQIISRYLNWYQHKPGKAPKVLIYAASTLQSGVPSRFSGSGSGTDFTLTISSLQPEDFATYYCQQSYSTPPITFGQGTRLEIK	49400
H1H17162P (antibody, V domains shown) VH: EVQLVESGGGLVQPGGSLRLSCAASEFTFSSYAMSWVRQAPGKGLEWVSAISGSSGSTYYADSVKGRFTISRDNSKKTLYLQMNSLRVEDTAVYYCAKGGYPHSFDIWGHGTMVTVSS VL: DIQMTQSPSSLSASVGDRVTITCRASQSISSFLNWYQQKPGKAPKLLIYAASSLQSGVPSRFSGSGSGTDFTLTISSLQPEDFATYYCQQSYSSITFGQGTRLEIK	21800
H1H17196P (antibody, V domains shown) VH: EVQLVESGGGLVQPGGSLRLSCAASGFTFRSYDMHWVRQGSGKGLEWVSAIGTAGDTYYLGSVKGRFTISRENAKNSLYLQMNSLRAGDTAVYYCARAWFGDVFLDYWGQGTLVTVSS VL: EIVMTQSPATLSVSPGERATLSCRASQSVSSNLAWYQQKPGQAPRLLIYGASTRATGIPARFSGSGSGTEFTLTISSLQSEDFAGYYCQQYNNRLTFGGGTKVEIK	25600

Consider the additional binder presented here.
Query :: Consider the binder H1H17142P (antibody, V domains shown) VH: EVQLVESGGGLVQPGGSLRLSCAASGFTFSSYAMTWVRQAPGKGLEWVSSISGSGTSTYYADSVKGRFTISRDNSKNTLYLQMNSLRAEDTALYYCSRDIYTWNFLSLIGGMDVWGQGTTVTVSS VL: DIQMTQSPSSLSASVGDRVTITCRASQGIRIDLGWYQQKPGKAPNRLIYAASSLQGGVPSRFSGSGSGTEFTLTISSLQPEDFATYYCLQQNSYPWTFGQGTKVEIK and give its measured kon.
Result :: 20000

Recorded values, source patent US20160215040A1.
